assay remarks: soluble fraction after stress (log2 fold change); higher = more stays soluble; pooled small domains, quantitative proteomics;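 further: 20 min heating vs room temperature control held 20 min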
condition: stress: 75 degC
observed property: soluble fraction (log2)

Reference set, count: 3
HMDIHSEEYILGQNIRKYRLRLGWSQADLSNAVDIDRADISKYENGAKGIMSSTLLRKFAKALGVSMDALM
-3.32
HMGALSLDMLFDRFDALQEQSMGDKTEGGQELRGMIRTFIEQEKLDIRVTRTTTNAALLEMIEKEMQG
-0.717
HMFKITNTLNKTAEVYLTIPENKKGKGKIMISVNGAFHELEAMTENDKIQSGAVVKVVRIENDNILIVET
-2.18

Fill in the blank: the reported soluble fraction (log2) of `HMVTKTTYAYERLKREIMDGTLGQGEKLVVNAISQRYQVSPMPIREALLKLEQEGLVQSAPHRGAWVHK` is ____.
-0.776

Return reported soluble fraction (log2); argument: `HMETFGLSQRELQILSQLHKGQPLKEFAASLFITESTLKTHLSAIYRKMSVKNRVQAIEKAKQSGL`
-1.4

soluble fraction (log2) for `HMNQLSYTERRVLQVIEGGTTKTGEIEQALAAKMSRPTVHRALDALVGANRIHRLARGEYALGPAP` ?
-0.501

Could you tell me which soluble fraction (log2) is on file for `HMENSLLSESLAKIYIKTHRYERAYEILSRLSLAVPEKNAYFADQLRFLRKVMLAESFRKQHS` ?
0.0207

Reported soluble fraction (log2), sequence `HMSVPSLVGKTDSEAQSAIKSAGLKVGTVTYQYSDETEKGYVVSQSPYSGNKVNAGSTVNIVVSKGK` : ____
0.0467

====

Below is a list of entries, each paired with its recorded soluble fraction (log2) value.
assay remarks: soluble fraction after stress (log2 fold change); higher = more stays soluble; pooled small domains, quantitative proteomics
condition: stress: 75 degC
Lab note: record the figure alone, no unit after it.

Look up soluble fraction (log2) for this sequence: `HMARRKRDIDSDINVKVFEHWLDNLDSASRESFSAFAEETFSPIQVYLYAKFLGYESSIIAVDHWVAVAYP`
0.135

====

Collected soluble fraction (log2) values appear next to each entry.
assay remarks: soluble fraction after stress (log2 fold change); higher = more stays soluble; pooled small domains, quantitative proteomics
condition: stress: 75 degC
Just the number, please, no unit after it.

Below: 4 sequences and their reported soluble fraction (log2).
HMGYGEQEQEAQKYLALHALMSQDPTLAKMYQAPNQYKLMSHVMEQNGIKNVNDYLTDPQQLP
-0.157
HMTISGSDLKAQREALNIPLERIAKETRIRLSILQDLEDEEYSELSSSAQTKGFLRLYADYLSSHKQRLG
-1.06
HMLPGKEIPLPEFLREAFARNEPALENFQNLAPSYRRQYILWITSAKTPETVQKRISESIGLLKENRKLGM
-0.616
HMGIVAGGTQSIATLRAIDTTDAQLYPDKILINVEDAGLYRLDRQSTATDDGNQVIKPTVGVGRWLKMTS
-0.15

Find the recorded soluble fraction (log2) belonging to `HMYVTGSAIRRLREKRKLTQAQLAAALSVSDKTVSKWETARGLPDITLLEPLARALQVSVPELLSGEEV` and report it.
-1.58

Please give the measured soluble fraction (log2) for this sequence: `HMSHQIIIVAVELDPSTERIVYYLSKNGISINVLFFKVFQHGDEQFLSRVWLIDPSETQTNAALA`
-0.726

Please report the recorded soluble fraction (log2) for `HMKRGDAYASEMIARLKEAHLIVMEGTLYPLLTRLKNDGLLSYRWEESTQGPPRKYYSITPVG` .
0.151

Need soluble fraction (log2), item `HMPPQPATQNTKAQVMQLAREKELMAGEGRGANVEALEKFANEHGISLRGMTEEQAEQLVKLLMEYTP`
-0.239

Fill in: soluble fraction (log2) of `HMVSTDPVHLFNLGTANRRAGRASEAITSYRKFMEAAPQHPQVPEARAYIHDMEVLLQERQKSEQAASQLS` is ___
0.143

Returns the measured soluble fraction (log2) for the input sequence. Input: `HMNYTALLNNFSENMKKRRVELSLSQKELASIVGVSVRTIQNYENKKTIPTSAVMESISIALDMGLEKMID`
-1.91

Consider the sequence shown here: `HMKTKTFSPGEIVKIQTRDKSWQGTILESHDPEIILLKLTTGYNIGIRENEIINAKVIEKSKKDVKDAE` What is its recorded soluble fraction (log2)?
0.258

Any idea what its soluble fraction (log2) is? The sequence is `HMQNFLSITSKEKIDIGNFQLISFKFENNLYDYVISGNKSELLIFQEKTIENNNENIEKITSNF`
-2.54

Query: soluble fraction (log2); subject: `HMRKKIIAQTLEEIRKSKGYSQKQVAAFIKVKPTTYNTYESGRTEPPAEILVRLSYLYRTPVDTLVQRDR`
-2.13

Return reported soluble fraction (log2); argument: `HMAKDEYGLTSNQRAFADEYIRNKGNATQAYLFAYPHIKKENTAAVNASRLLRNAKVSKYIADRTKEIL`
-0.103
